Just for reference, patent US20250263489A1 is where these values come from.

target: recombinant human IGF-1 receptor histidine tag (305-GR-050, R&D SYSTEMS) (human) (UniProt P08069); experiment: antigen ELISA, plate-coated human recombinant IGF-1R, antibody at 5 nM, relative to IGF11-16
quantity_kind: Binding vs IGF11-16 (EC50) (% vs IGF11-16)

binder="IGF11-16 with alanine substitution of S at position 56 (CDR-H2) (antibody, mouse IgG1, V domains shown) VH: QIQLQQPGAELVKPGASVKLSCKAPGYTFTSYWMHWVKQRPGQGLEWIGETNPSNAVTNYNEKFKSKATLTVDKSSSTAYMQLSSLTSEDSAVYYCTIGRGRGFAYWGQGTLVTVSA VL: DIQMNQSPSSLSASLGDTITITCRASQNINFWLSWCQQKPGNIPKLLIYKASNLHTGVPSRFSGSGSGTDFTLTISSLQPEDIATYYCLQGQSYPYTFGGGTKLEIK" test_value=108
binder="IGF11-16 with alanine substitution of F at position 64 (CDR-H2) (antibody, mouse IgG1, V domains shown) VH: QIQLQQPGAELVKPGASVKLSCKAPGYTFTSYWMHWVKQRPGQGLEWIGETNPSNSVTNYNEKAKSKATLTVDKSSSTAYMQLSSLTSEDSAVYYCTIGRGRGFAYWGQGTLVTVSA VL: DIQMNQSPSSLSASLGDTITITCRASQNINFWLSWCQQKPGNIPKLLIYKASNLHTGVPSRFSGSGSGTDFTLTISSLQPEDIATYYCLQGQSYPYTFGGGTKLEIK" test_value=84
binder="IGF11-16 with alanine substitution of N at position 55 (CDR-H2) (antibody, mouse IgG1, V domains shown) VH: QIQLQQPGAELVKPGASVKLSCKAPGYTFTSYWMHWVKQRPGQGLEWIGETNPSASVTNYNEKFKSKATLTVDKSSSTAYMQLSSLTSEDSAVYYCTIGRGRGFAYWGQGTLVTVSA VL: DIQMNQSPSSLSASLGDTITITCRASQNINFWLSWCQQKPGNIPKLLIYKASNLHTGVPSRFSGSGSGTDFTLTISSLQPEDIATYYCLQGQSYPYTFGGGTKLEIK" test_value=94
binder="IGF11-16 with alanine substitution of E at position 50 (CDR-H2) (antibody, mouse IgG1, V domains shown) VH: QIQLQQPGAELVKPGASVKLSCKAPGYTFTSYWMHWVKQRPGQGLEWIGATNPSNSVTNYNEKFKSKATLTVDKSSSTAYMQLSSLTSEDSAVYYCTIGRGRGFAYWGQGTLVTVSA VL: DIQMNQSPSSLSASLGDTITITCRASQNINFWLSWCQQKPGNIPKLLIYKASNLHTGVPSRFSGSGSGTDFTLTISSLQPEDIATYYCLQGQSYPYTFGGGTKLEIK" test_value=9
binder="IGF11-16 with alanine substitution of N at position 52 (CDR-H2) (antibody, mouse IgG1, V domains shown) VH: QIQLQQPGAELVKPGASVKLSCKAPGYTFTSYWMHWVKQRPGQGLEWIGETAPSNSVTNYNEKFKSKATLTVDKSSSTAYMQLSSLTSEDSAVYYCTIGRGRGFAYWGQGTLVTVSA VL: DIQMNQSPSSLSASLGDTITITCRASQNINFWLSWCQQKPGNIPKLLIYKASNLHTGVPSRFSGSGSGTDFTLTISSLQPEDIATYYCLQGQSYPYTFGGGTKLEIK" test_value=21
binder="IGF11-16 with alanine substitution of N at position 59 (CDR-H2) (antibody, mouse IgG1, V domains shown) VH: QIQLQQPGAELVKPGASVKLSCKAPGYTFTSYWMHWVKQRPGQGLEWIGETNPSNSVTAYNEKFKSKATLTVDKSSSTAYMQLSSLTSEDSAVYYCTIGRGRGFAYWGQGTLVTVSA VL: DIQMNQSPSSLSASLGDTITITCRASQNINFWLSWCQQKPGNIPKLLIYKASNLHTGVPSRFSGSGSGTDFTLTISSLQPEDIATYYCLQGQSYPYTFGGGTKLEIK" test_value=112
binder="IGF11-16 with alanine substitution of R at position 102 (CDR-H3) (antibody, mouse IgG1, V domains shown) VH: QIQLQQPGAELVKPGASVKLSCKAPGYTFTSYWMHWVKQRPGQGLEWIGETNPSNSVTNYNEKFKSKATLTVDKSSSTAYMQLSSLTSEDSAVYYCTIGRGAGFAYWGQGTLVTVSA VL: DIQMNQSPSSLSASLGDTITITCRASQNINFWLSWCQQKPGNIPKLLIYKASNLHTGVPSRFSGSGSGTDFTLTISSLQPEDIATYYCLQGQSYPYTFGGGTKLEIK" test_value=9
binder="IGF11-16 with alanine substitution of H at position 35 (CDR-H1) (antibody, mouse IgG1, V domains shown) VH: QIQLQQPGAELVKPGASVKLSCKAPGYTFTSYWMAWVKQRPGQGLEWIGETNPSNSVTNYNEKFKSKATLTVDKSSSTAYMQLSSLTSEDSAVYYCTIGRGRGFAYWGQGTLVTVSA VL: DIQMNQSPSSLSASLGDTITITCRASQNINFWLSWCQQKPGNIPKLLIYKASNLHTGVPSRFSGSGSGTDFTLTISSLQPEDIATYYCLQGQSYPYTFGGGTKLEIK" test_value=49
binder="IGF11-16 with alanine substitution of W at position 33 (CDR-H1) (antibody, mouse IgG1, V domains shown) VH: QIQLQQPGAELVKPGASVKLSCKAPGYTFTSYAMHWVKQRPGQGLEWIGETNPSNSVTNYNEKFKSKATLTVDKSSSTAYMQLSSLTSEDSAVYYCTIGRGRGFAYWGQGTLVTVSA VL: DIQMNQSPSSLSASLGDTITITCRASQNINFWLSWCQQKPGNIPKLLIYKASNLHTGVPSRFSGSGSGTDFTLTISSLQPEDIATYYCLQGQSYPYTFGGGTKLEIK" test_value=9
